Entry source: patent US20250361322A1

Target: human Tissue Factor (TF) (human, UniProt P13726 33-295)
Assay: cell-based or functional assay
Measured % GM-CSF at 40 nM antibody accompanies every entry in the list below.
Write the number in % without appending the unit.

[[record]]
binder = "25G1 (antibody, human IgG1, V domains shown) VH: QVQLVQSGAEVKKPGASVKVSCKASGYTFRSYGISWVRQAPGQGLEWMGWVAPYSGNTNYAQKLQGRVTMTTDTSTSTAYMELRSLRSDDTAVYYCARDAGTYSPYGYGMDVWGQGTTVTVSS VL: DIQMTQSPSTLSASVGDRVTITCRASHSIDSWLAWYQQKPGKAPKLLIYKASYLESGVPSRFSGSGSGTEFTLTISSLQPDDFATYYCQLFQSLPPFTFGGGTKVEIK"
recorded_endpoint = "% GM-CSF at 40 nM antibody"
quantity_unit = "%"
reported_result = 16


Now examine the next entry.
**Query** Reported % GM-CSF at 40 nM antibody for 43D (antibody, human IgG1, V domains shown) VH: QVQLQQWGAGLLKPSETLSLTCAVYGGSLSGYYWSWIRQPPGKGLEWIGEIGASGSTRYNPSLKSRVTISVDTSKNQFSLKLSSVTAADTAVYYCARDTPYYYEGGYYYYMDVWGKGTTVTVSS VL: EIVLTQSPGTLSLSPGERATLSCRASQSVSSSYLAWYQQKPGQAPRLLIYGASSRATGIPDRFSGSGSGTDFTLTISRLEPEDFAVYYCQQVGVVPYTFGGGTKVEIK : what is it?
**Result** 11
